Assay: mn = molality of the nth substance listed, in mol/kg
Conditions: 293.15 K; 101 kPa; Liquid; Capillary tube (Ostwald / Ubbelohde) method; m1 = 0.3496
property: viscosity (mPa·s)
Give bare numbers, in mPa·s.

In [3]: df
Out[3]:
                                   compound   property  measuredvalue
0  Cc1ccc(N)cc1N [4-methyl-1,3-benzendiamine] + CCO  viscosity           1.28

I would be grateful if you could provide viscosity for each of the following entries.
1. Cc1c(N)cccc1N [2,6-diaminotoluene] + CCCO
2. Cc1ccc(N)cc1N [4-methyl-1,3-benzendiamine] + CCCO
3. Cc1c(N)cccc1N [2,6-diaminotoluene] + CCO

output:
1. 2.305
2. 2.315
3. 1.272

* * *

Experiment: mn = molality of the nth substance listed, in mol/kg
Conditions: 333.15 K; 101 kPa; Liquid; Vibrating tube method; m1 = 0.3496
property: mass density (kg/m3)
Give bare numbers, in kg/m3.

Consider the worked cases shown below.
>>> print(df.to_string())
                                   molecule      property  unittag  measuredvalue
0  Cc1ccc(N)cc1N [4-methyl-1,3-benzendiamine] + CCCO  mass density    kg/m3         780.74
1  Cc1c(N)cccc1N [2,6-diaminotoluene] + CCO  mass density    kg/m3         766.04
2  Cc1c(N)cccc1N [2,6-diaminotoluene] + CCCO  mass density    kg/m3         781.15

With those in mind, consider the next molecule.
input: Please look at this molecule and report its mass density: Cc1ccc(N)cc1N [4-methyl-1,3-benzendiamine] + CCO
output: 766.03

* * *

Settings: 333.15 K; 101 kPa; Liquid; Vibrating tube method
Numbers after ± are expanded uncertainties.
property: mass density
Note to self: number, then unit, no commentary.

The examples below pair each entry with its known result.
             compound        measuredvalue
0  CCCCO [butan-1-ol]  778.16 ± 0.17 kg/m3
1       CCO [ethanol]  754.18 ± 0.17 kg/m3
2           O [water]   983.2 ± 0.23 kg/m3

input: Identify measured mass density associated with CCCO [propan-1-ol]
output: 770.42 ± 0.18 kg/m3

* * *

Exercise: state measured mass density for each of the compounds provided.
Assay: mn = molality of the nth substance listed, in mol/kg
Conditions: 333.15 K; 101 kPa; Liquid; Vibrating tube method; m2 = 0
Give bare numbers, in kg/m3.

For orientation, consider the following solved cases.
>>> print(df.to_string())
                             compound      property  measuredvalue
0       CCO [ethanol] + Cc1ccc(N)cc1N  mass density         754.18
1           O [water] + Cc1ccc(N)cc1N  mass density          983.2
2  CCCO [propan-1-ol] + Cc1ccc(N)cc1N  mass density         770.42

Batch of 5 compounds: report mass density for each.
1. CCO [ethanol] + Cc1c(N)cccc1N
2. CCCCO [butan-1-ol] + Cc1c(N)cccc1N
3. O [water] + Cc1c(N)cccc1N
4. CCCCO [butan-1-ol] + Cc1ccc(N)cc1N
5. CCCO [propan-1-ol] + Cc1c(N)cccc1N

output:
[754.18, 778.16, 983.2, 778.16, 770.42]

* * *

Kindly state viscosity for each of the entries shown.
Conditions: 323.15 K; 101 kPa; Liquid; Capillary tube (Ostwald / Ubbelohde) method
Give bare numbers, in mPa·s.

Some compounds with recorded viscosity:
>>> df
   itemsmiles  measuredvalue
0       CCCCO          1.351
1        CCCO          1.067
2         CCO          0.672

Would you kindly look at the next entry?
input: Return value of viscosity for input O , no commentary.
output: 0.547

* * *

Conditions: 323.15 K; 101 kPa; Liquid; Vibrating tube method
property: mass density (kg/m3)
Numbers only, in kg/m3.

>>> print(df.to_string())
   itemsmiles  measuredvalue
0           O         988.04

For the 3 compounds below, give their mass density values.
1. CCCO
2. CCO
3. CCCCO

output:
[779.01, 763.29, 786.32]

* * *

Assign mass density to each entry below.
Assay: mn = molality of the nth substance listed, in mol/kg
Settings: 313.15 K; 101 kPa; Liquid; Vibrating tube method; m2 = 0
Answers are plain numbers, in kg/m3.

// known answers, use as guide
In [3]: df
Out[3]:
                             compound      property  measuredvalue
0       CCO [ethanol] + Cc1c(N)cccc1N  mass density         772.22
1  CCCO [propan-1-ol] + Cc1c(N)cccc1N  mass density         787.37
2       CCO [ethanol] + Cc1ccc(N)cc1N  mass density         772.22
3  CCCCO [butan-1-ol] + Cc1ccc(N)cc1N  mass density         794.27
4  CCCCO [butan-1-ol] + Cc1c(N)cccc1N  mass density         794.27

input: State, in one line, measured mass density of CCCO [propan-1-ol] + Cc1ccc(N)cc1N
output: 787.37

* * *

Details: 313.15 K; 101 kPa; Liquid; Capillary tube (Ostwald / Ubbelohde) method
Could you please report measured viscosity for the items listed next?
Numbers only, in mPa·s.

Field: viscosity. Fill in for each record below.
1. CCCO [propan-1-ol]
2. O [water]
3. CCO [ethanol]
4. CCCCO [butan-1-ol]

output:
1.338
0.653
0.806
1.723

* * *

Assay: mn = molality of the nth substance listed, in mol/kg
Details: 323.15 K; 101 kPa; Liquid; Capillary tube (Ostwald / Ubbelohde) method; m1 = 0.3496
property: viscosity (mPa·s)
Answers are plain numbers, in mPa·s.

Guide cases for viscosity, answers given:
>>> df
                                   compound   property  unittag  measuredvalue
0  Cc1c(N)cccc1N [2,6-diaminotoluene] + CCO  viscosity    mPa·s          0.711
1  Cc1c(N)cccc1N [2,6-diaminotoluene] + CCCO  viscosity    mPa·s          1.112
2  Cc1ccc(N)cc1N [4-methyl-1,3-benzendiamine] + CCCO  viscosity    mPa·s          1.112

Could you now consider this next compound?
input: Tell me its viscosity given Cc1ccc(N)cc1N [4-methyl-1,3-benzendiamine] + CCO as the entry.
output: 0.714

* * *

I'd be grateful if you could share measured viscosity for these entries.
Assay: mn = molality of the nth substance listed, in mol/kg
Details: 323.15 K; 101 kPa; Liquid; Capillary tube (Ostwald / Ubbelohde) method; m2 = 0
Numbers only, in mPa·s.

Required: viscosity, one value per compound below.
1. CCO [ethanol] + Cc1ccc(N)cc1N
2. CCCO [propan-1-ol] + Cc1ccc(N)cc1N
3. O [water] + Cc1c(N)cccc1N
4. CCO [ethanol] + Cc1c(N)cccc1N
5. CCCCO [butan-1-ol] + Cc1ccc(N)cc1N
6. CCCO [propan-1-ol] + Cc1c(N)cccc1N

output:
1. 0.672
2. 1.067
3. 0.547
4. 0.672
5. 1.351
6. 1.067

input: Specify viscosity for CCCCO [butan-1-ol] + Cc1c(N)cccc1N and stop.
output: 1.351

* * *

Assay: mn = molality of the nth substance listed, in mol/kg
Conditions: 313.15 K; 101 kPa; Liquid; Vibrating tube method; m1 = 0.3496
For each entry below, report its mass density value.
Numbers only, in kg/m3.

Before answering, review these 3 worked examples.
>>> df
                                   molecule  measuredvalue
0  Cc1ccc(N)cc1N [4-methyl-1,3-benzendiamine] + CCCO         797.83
1  Cc1ccc(N)cc1N [4-methyl-1,3-benzendiamine] + CCO         784.07
2  Cc1c(N)cccc1N [2,6-diaminotoluene] + CCO         784.13

With those in mind, consider the next molecule.
input: Note down mass density recorded for Cc1c(N)cccc1N [2,6-diaminotoluene] + CCCO
output: 798.21

* * *

Answer each item with its documented viscosity.
Assay: mn = molality of the nth substance listed, in mol/kg
Conditions: 313.15 K; 101 kPa; Liquid; Capillary tube (Ostwald / Ubbelohde) method; m2 = 0
± gives the expanded uncertainty stated by the source.

Some solved entries appear below for comparison.
>>> print(df.to_string())
                             compound        measuredvalue
0       CCO [ethanol] + Cc1c(N)cccc1N  0.806 ± 0.006 mPa·s
1           O [water] + Cc1c(N)cccc1N  0.653 ± 0.006 mPa·s
2  CCCO [propan-1-ol] + Cc1ccc(N)cc1N  1.338 ± 0.009 mPa·s
3  CCCO [propan-1-ol] + Cc1c(N)cccc1N  1.338 ± 0.009 mPa·s
4  CCCCO [butan-1-ol] + Cc1ccc(N)cc1N  1.723 ± 0.012 mPa·s
5  CCCCO [butan-1-ol] + Cc1c(N)cccc1N  1.723 ± 0.012 mPa·s

Now for the compound whose viscosity we want.
input: Report measured viscosity; entry is CCO [ethanol] + Cc1ccc(N)cc1N
output: 0.806 ± 0.006 mPa·s
